Source of measurements: paper PMC2756588

Biological target: T1, Lsb1, P53281
T1 sequence (P53281 45-122, looked up): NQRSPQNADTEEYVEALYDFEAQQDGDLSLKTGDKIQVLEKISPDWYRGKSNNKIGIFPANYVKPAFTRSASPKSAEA
Assay: SPOT array
Settings: median of control spots 388
Criterion: SPOT intensity strictly less than 60. Met: TRUE. Not met: FALSE.

Please review the entries below; each comes with its answer.
Binder: SKSRLLIELPEGFFT
Classification: TRUE
--
Binder: KWVRRPKLMTPLTFS
Classification: FALSE
--
Binder: NFKRLLPRDPSEKSS
Classification: TRUE
--
Binder: KDKKTKPTPPPKPSH
Classification: TRUE

Req: In the record for LYKRKPILLPDPKPL , is SPOT intensity less than 60?
Resp: FALSE

Req: In the record for RRRIAYPFYPFKKLG , is SPOT intensity less than 60?
Resp: TRUE

Req: In the record for VQPTAAPATPPRHIS , is SPOT intensity less than 60?
Resp: TRUE
